- assay.procedure: PET hydrolysis, aromatic products released after 48 h (umol product/mg enzyme); higher = more PET depolymerization activity
- test.settings: substrate: cryPow; 40 °C; pH 6.5
measured.property: PET hydrolysis
One number for each entry.

Can you share its PET hydrolysis? I mean this sequence: ADQRGPDPTVQSIEAARGPFATSTSRVSSLVSGFGGGTIYYPTDTSQGRFGGVVIAPGYTAGESSIAWLGPRLASQGFVVFTIDTLTRVDQPASRGRQLLAAADYLTQRSDVADRVDPARLAVMGHSMGGGGTLEAAKSRPGLKAIIPLTPWNLDKTWPEITTPTLIFGAQNDSVASVVTHARPFYQSLPATTPRSYLELRGASHFAPNLSNTTIAKYSIAWLKRFVDDDQRYTQFLCPAPADTALSDVRTSCPF [TEP091]
10

====

- assay.procedure: melting temperature (DSF); higher = more thermostable
measured.property: melting temperature (C)
Answers are plain numbers, in C.

Some solved cases for reference:
MLTITVATGSASAADNPYQRGPDPTRTSVTAVNGPFANTSVSVPTGYGFNGGRIYYPTDTSQGTFGAIAISPGYTALFSAELAWMGPWLASHGFVVIGIETNSRNDFDTARGTQLLAALDYLTQQSPVRDRVDPNRLAVAGHSMGGGGALSAATRRSSLKAVVGIAPYSPSSNLANDRVPTMIFAGQADTVVTPSYATGLYNSLPTTTESAYLEVAGADHGFMVGRSNPVMVRTMLPFVKMFIDNDARYSQFLCPLLDSSGVVTYRSTCPLLPSTPPTSTPTPTDPPTPTPTPTVPPGSASEIVGTQSSRCIDVPNASRNNGTRVQLYDCNKQTNQA [ESM121]	58.9
ADNPYQRGPDPTRASVAAVNGPFVNTSVSVPTGYGFNGGRIYYPTDTSQGTFGAIAISPGYTALFSAELAWMGPWLASHGFVVIGIETNSRNDFDTARGTQLLAALDYLTQQSPVRDRVDPNRLAVSGHSMGGGGALSAAIRRSSLKAAVGITPYSPSQNLANDRVPTMVISGQADTVVTPSYALGLYNSLPASTESVYLEVAGGDHGFMVGRSNPVLIRTMLPFLKMFVDNDSRYSQFLCPLLDSSGVVTYRSTCPLLPTNPTTPPPTGTPTPTPTSTPTPTPTPTTPPPSGSANE [ESM091]	62.5
ATPDHAATADHASAHHHAAYPVSQQTIPATDGTGFGAATLYAPQGTGRKTLGAIVVAPGLKGDQSDLAWLAQDLAGEGFIVLNMDTLGKYDLPNQRSYEMLAAAKYLATASSVKDQVDPADIGVVGYSLGGGGALQAAVEQHGLKAAVALMPYDFPAGTTDPYKPTESPTYPGITTPTLVITGQADTTAPAASMGKPAYDSIPASTPKQYLELRGADHLAARATTNGTVRDAVTNFLKVYLDGNSAYRKYVCPAPPTSAAISESASSCPR [ESM174]	44.5
LTPSPTPPPTGGTGGCPADAICRGETPGSYSANGPYGSRSYTLSRIQTPGGATVYYPANAEPPFSGLVFTPPYTGSQFMYRAWGPFFASHGIVMVTMDTRTTLDSVDQRAAQQKQVLDALKAENTRSASPLRGKLDTSRLGAVGWSMGGGATWINSAEYSGLKTAMSLAGHNLSALDINARGSNTRVPTLIMNGALDATYLGGLGQSLGVYNNIPRGIPKVIYEVSSAGHFSWGSPTSAGRSVAQIALAFQKTFLDGDTRWATYIRRPSSGVATWRTANLP [ESM175]	46

As a next step, examine the sequence that follows.
Query: melting temperature; subject: ADNPYERGPAPTTSSIEASRGPFATASTTVSSLVSGFGGGTIYYPTSTAEGTFGAVAISPGYTGTQSSIAWLGPRIASQGFVVITIDTNTIYDQPDSRASQLLAALDYLTQSSSVRTRIDATRLGVMGHSMGGGGTLRAAESRPALQAAIPLTAWHTDKTWGNVRVPTLVIGAENDSIAPVATHSEPFYTSLPSTLDKAYLELNAADHFAPNSSNTTIAKYSISWLKRFIDNDTRYEQFLCPPPSRSLLIEEYRDTCPHS [TEP108]
42.1
